meta.source: ChEMBL document CHEMBL4811314

- assaySystem: Hexokinase-4 (Homo sapiens, UniProt P35557)
- Sequence (P35557 whole entry): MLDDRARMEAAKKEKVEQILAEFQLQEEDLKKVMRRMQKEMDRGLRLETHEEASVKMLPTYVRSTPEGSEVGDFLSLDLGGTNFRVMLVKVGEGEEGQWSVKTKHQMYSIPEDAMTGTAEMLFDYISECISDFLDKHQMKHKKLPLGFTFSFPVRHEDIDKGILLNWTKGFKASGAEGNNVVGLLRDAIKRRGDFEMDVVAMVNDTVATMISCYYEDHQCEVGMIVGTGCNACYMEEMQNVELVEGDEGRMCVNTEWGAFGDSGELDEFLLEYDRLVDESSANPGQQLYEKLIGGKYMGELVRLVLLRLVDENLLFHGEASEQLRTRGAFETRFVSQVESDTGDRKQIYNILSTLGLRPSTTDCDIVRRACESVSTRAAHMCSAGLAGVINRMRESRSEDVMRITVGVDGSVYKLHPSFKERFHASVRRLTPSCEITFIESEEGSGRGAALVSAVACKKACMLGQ
- testDescription: Inhibition of human hexokinase-4 at 20 uM relative to control
Quick reference for inhibition at 20 µM among some compounds
quantityKind: inhibition at 20 µM (%)

[[record]]
compound = "O=C(N[C@@H]1C(O)O[C@H](CO)[C@@H](O)[C@@H]1O)c1ccc(CCl)cc1 (some centres undefined)"
valueunit = "%"
assayvalue = 28.1

[[record]]
compound = "O=C(N[C@@H]1C(O)O[C@H](CO)[C@@H](O)[C@@H]1O)c1ccoc1 (some centres undefined)"
valueunit = "%"
assayvalue = 31.6

[[record]]
compound = "O=C(N[C@@H]1C(O)O[C@H](CO)[C@@H](O)[C@@H]1O)c1ccccc1 (some centres undefined)"
valueunit = "%"
assayvalue = 55.5

[[record]]
compound = "O=C(N[C@@H]1C(O)O[C@H](CO)[C@@H](O)[C@@H]1O)c1cc2ccccc2o1 (some centres undefined)"
valueunit = "%"
assayvalue = 12.4

[[record]]
compound = "O=C(N[C@H]1C(O)O[C@H](CO)[C@@H](O)[C@@H]1O)c1cc2ccccc2o1 (some centres undefined)"
valueunit = "%"
assayvalue = 25.2

[[record]]
compound = "O=C(N[C@@H]1C(O)O[C@H](CO)[C@@H](O)[C@@H]1O)c1cccc(Br)c1 (some centres undefined)"
valueunit = "%"
assayvalue = 27

[[record]]
compound = "O=C(N[C@H]1C(O)O[C@H](CO)[C@H](O)[C@@H]1O)c1ccoc1 (some centres undefined)"
valueunit = "%"
assayvalue = 47.2

[[record]]
compound = "O=C(N[C@H]1C(O)O[C@H](CO)[C@H](O)[C@@H]1O)c1cccc(Br)c1 (some centres undefined)"
valueunit = "%"
assayvalue = 29.8

[[record]]
compound = "O=C(N[C@H]1C(O)O[C@H](CO)[C@@H](O)[C@@H]1O)c1ccoc1 (some centres undefined)"
valueunit = "%"
assayvalue = 41.2


###

Quick reference for pIC50 among some compounds
- System: Trypanosoma cruzi
- testDescription: Antitrypanosomal activity against Trypanosoma cruzi Tulahuen amastigotes infected in mouse NIH/3T3 cells assessed as parasite growth inhibition incubated for 4 days in glucose rich DMEM medium
- Type: functional, organism-based
- measurementConditions: NIH3T3, 96 h
pIC50: −log10 of the molar value.
quantityKind: pIC50

[[record]]
compound = "O=C(Cn1ccnc1[N+](=O)[O-])NCc1ccccc1"
quantitykind = "pIC50"
assayvalue = 5.95

[[record]]
compound = "O=C(N[C@H]1C(O)O[C@H](CO)[C@@H](O)[C@@H]1O)OCc1ccccc1 (stereo partly drawn)"
quantitykind = "pIC50"
assayvalue = 4.31

[[record]]
compound = "O=C(N[C@H]1C(O)O[C@H](CO)[C@@H](O)[C@@H]1O)c1ccccc1 (stereo partly drawn)"
quantitykind = "pIC50"
assayvalue = 4.79


###

- assaySystem: Hexokinase-4 (Homo sapiens, UniProt P35557)
- testDescription: Inhibition of human hexokinase-4 at 20 uM relative to control
Quick reference for inhibition at 20 µM among some molecules
quantityKind: inhibition at 20 µM

[[record]]
molecule = "O=C(N[C@H]1C(O)O[C@H](CO)[C@@H](O)[C@@H]1O)OCc1ccccc1 (stereo partly drawn)"
assaysystem = "Hexokinase-4 (Homo sapiens, UniProt P35557)"
quantitykind = "inhibition at 20 µM"
assayvalue = "2%"

[[record]]
molecule = "O=C(N[C@H]1C(O)O[C@H](CO)[C@H](O)[C@@H]1O)c1ccc(CCl)cc1 (stereo partly drawn)"
assaysystem = "Hexokinase-4 (Homo sapiens, UniProt P35557)"
quantitykind = "inhibition at 20 µM"
assayvalue = "8.3%"

[[record]]
molecule = "O=C(N[C@H]1C(O)O[C@H](CO)[C@@H](O)[C@@H]1O)c1ccc(CCl)cc1 (stereo partly drawn)"
assaysystem = "Hexokinase-4 (Homo sapiens, UniProt P35557)"
quantitykind = "inhibition at 20 µM"
assayvalue = "35.8%"

[[record]]
molecule = "Cc1ccc(C(=O)N[C@@H]2C(O)O[C@H](CO)[C@@H](O)[C@@H]2O)o1 (stereo partly drawn)"
assaysystem = "Hexokinase-4 (Homo sapiens, UniProt P35557)"
quantitykind = "inhibition at 20 µM"
assayvalue = "48.8%"

[[record]]
molecule = "O=C(N[C@H]1C(O)O[C@H](CO)[C@H](O)[C@@H]1O)c1cc2ccccc2o1 (stereo partly drawn)"
assaysystem = "Hexokinase-4 (Homo sapiens, UniProt P35557)"
quantitykind = "inhibition at 20 µM"
assayvalue = "36.5%"

[[record]]
molecule = "O=C(N[C@H]1C(O)O[C@H](CO)[C@@H](O)[C@@H]1O)c1ccccc1 (stereo partly drawn)"
assaysystem = "Hexokinase-4 (Homo sapiens, UniProt P35557)"
quantitykind = "inhibition at 20 µM"
assayvalue = "39.2%"

[[record]]
molecule = "O=C(N[C@H]1C(O)O[C@H](CO)[C@@H](O)[C@@H]1O)c1cccc(Br)c1 (stereo partly drawn)"
assaysystem = "Hexokinase-4 (Homo sapiens, UniProt P35557)"
quantitykind = "inhibition at 20 µM"
assayvalue = "31.2%"

[[record]]
molecule = "O=C(N[C@H]1C(O)O[C@H](CO)[C@H](O)[C@@H]1O)c1ccccc1 (stereo partly drawn)"
assaysystem = "Hexokinase-4 (Homo sapiens, UniProt P35557)"
quantitykind = "inhibition at 20 µM"
assayvalue = "37.8%"

